B1: ZNF75A (parent)
chain: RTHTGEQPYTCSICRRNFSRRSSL

Variants of: B1
Assay: protein stability index of a GFP-peptide fusion (GPS, HEK-293T) (PSI 1-6); higher = more stable;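 note: lentivirally expressed fusions sorted by FACS into six bins by GFP to DsRed ratio, PSI derived from sequencing read proportions per bin multiplied by bin number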
Conditions: c terminus: a fixed tail appended
assay-metric: protein stability index

[[record]]
variant_name = "T2C"
assay_metric = "protein stability index"
quantitative_result = 3.17

[[record]]
variant_name = "T4M"
assay_metric = "protein stability index"
quantitative_result = 2.66

[[record]]
variant_name = "R20P"
assay_metric = "protein stability index"
quantitative_result = 2.36

[[record]]
variant_name = "T10F"
assay_metric = "protein stability index"
quantitative_result = 2.71

[[record]]
variant_name = "T2H"
assay_metric = "protein stability index"
quantitative_result = 3.33

[[record]]
variant_name = "R15S"
assay_metric = "protein stability index"
quantitative_result = 2.47

[[record]]
variant_name = "R15E"
assay_metric = "protein stability index"
quantitative_result = 2.03

[[record]]
variant_name = "C11D"
assay_metric = "protein stability index"
quantitative_result = 4.34

[[record]]
variant_name = "P8C"
assay_metric = "protein stability index"
quantitative_result = 2.52

[[record]]
variant_name = "S23K"
assay_metric = "protein stability index"
quantitative_result = 3.2

[[record]]
variant_name = "Y9H"
assay_metric = "protein stability index"
quantitative_result = 3.02


The reported numbers originate from the supplement of paper PMC10567573.
